Taken from PubChem BioAssay AID2060909.

# Test system: 362531-283-R-J2-PDC complex spheroid viability;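 further: spheroids exposed to the agents for 7 days before readout; luminescence viability as percent of DMSO vehicle control wells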
# assay-overview: Anticancer human tumor 362531-283-R-J2-PDC patient-derived colon adenocarcinoma cell line growth inhibition [RAS]
# setup-conditions: second compound 0.03 µM; first compound 1 µM; active compounds read low
# key: entry, value: viability, T/C
Give just the number in %; leave the unit off.

CCC(CC)c1cc(NC2CCC(N)C2)n2nccc2n1 (configuration not stated) + CCn1c(-c2cc(N3CCN(C)CC3)cnc2C(C)OC)c2c3cc(ccc31)-c1csc(n1)CC(NC(=O)C1CC1C)C(=O)N1CCCC(N1)C(=O)OCC(C)(C)C2 : 99.4

Shifting focus to the compound that follows.
Note to self: viability, T/C recorded for CC(Nc1ccc2c(c1)OCCn1cc(N3C(=O)OCC3C(F)F)nc1-2)C(N)=O (configuration not stated) + CCn1c(-c2cc(N3CCN(C)CC3)cnc2C(C)OC)c2c3cc(ccc31)-c1csc(n1)CC(NC(=O)C1CC1C)C(=O)N1CCCC(N1)C(=O)OCC(C)(C)C2 was 45.8
